What IC50 was measured for each of the following?
Study System: Recombinant HCV polymerase (Hepatitis C virus genotype 1b)
Construct: Recombinant HCV polymerase was tested for its ability to perform primer/template-directed transcription
Sequence (P26663 2420-3010): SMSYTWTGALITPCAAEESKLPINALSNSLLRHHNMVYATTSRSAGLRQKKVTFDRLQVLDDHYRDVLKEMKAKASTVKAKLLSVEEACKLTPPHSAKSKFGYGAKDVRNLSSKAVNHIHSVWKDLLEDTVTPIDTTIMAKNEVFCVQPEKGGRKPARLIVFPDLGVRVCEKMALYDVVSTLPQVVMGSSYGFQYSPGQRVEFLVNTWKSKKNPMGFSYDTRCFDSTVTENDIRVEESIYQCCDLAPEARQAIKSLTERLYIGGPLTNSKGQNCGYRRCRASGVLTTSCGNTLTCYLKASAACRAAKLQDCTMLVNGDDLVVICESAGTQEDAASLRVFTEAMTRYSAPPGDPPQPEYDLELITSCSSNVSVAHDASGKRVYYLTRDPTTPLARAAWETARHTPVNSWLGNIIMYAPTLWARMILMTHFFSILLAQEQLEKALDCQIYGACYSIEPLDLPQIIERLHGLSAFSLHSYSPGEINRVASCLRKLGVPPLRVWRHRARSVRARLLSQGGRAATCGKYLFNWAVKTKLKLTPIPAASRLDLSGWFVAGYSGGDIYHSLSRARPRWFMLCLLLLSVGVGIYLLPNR
Method Summary: biochemical
Run Parameters: inhibition of polymerase-directed transcription; 30 min at 30° C; 30 nM enzyme; cpm data in triplicate
Quick note: give the figure in nM, leave out the unit.

query: Return the recorded IC50 value; entry: CCOc1cc(O)c(CC)cc1CCC1(C2CCCC2)CC(O)=C(Cc2nc3ncc(C)cn3n2)C(=O)O1 (single isomer, unassigned) [A(57)]
result: 3

query: Return the recorded IC50 value; entry: Cc1cnc2nc(CC3=C(O)CC(CCc4cc(F)c(C(C)(C)C#N)cc4O)(C4CCCC4)OC3=O)nn2c1 (stereo not drawn)
result: 12

query: Return the recorded IC50 value; entry: CCn1cc(CC2=C(O)CC(CCc3ccc(C(C)(C)C#N)c(F)c3)(C3CCCC3)OC2=O)c(C)n1 (stereo not drawn)
result: 40

query: Return the recorded IC50 value; entry: Cc1cc(C)n2nc(OC3C(=O)CC(CCc4ccc(C(C)(C)C#N)c(Cl)c4)(C4CCCC4)OC3=O)nc2n1 (stereo not drawn)
result: 10000

query: Return the recorded IC50 value; entry: O=C1CC(=O)OC(CCc2ccc(S(=O)(=O)C(F)(F)F)cc2)(C2CCCC2)C1 (stereo not drawn)
result: 31000

query: Return the recorded IC50 value; entry: CCc1ccc(=O)n(CCC2(C3CCCC3)CC(O)=C(Cc3nc4nc(C)cc(C)n4n3)C(=O)O2)c1 (stereo not drawn)
result: 180

query: Return the recorded IC50 value; entry: Cc1cc(C)n2nc(CC3=C(O)CC(CCc4ccc(C(C)(C)O)c(Cl)c4)(C4CCCC4)OC3=O)nc2n1 (stereo not drawn)
result: 22

query: Return the recorded IC50 value; entry: Cc1cc(C)n2nc(CC3=C(O)CC(CCc4ccc(C(C)(C)NS(C)(=O)=O)c(F)c4)(C4CCCC4)OC3=O)nc2n1 (stereo not drawn)
result: 17

query: Return the recorded IC50 value; entry: CCn1nc(C)c(CC2=C(O)CC(CCc3cc(Cl)c(OC)cc3OC)(C3CCCC3)OC2=O)c1C (stereo not drawn)
result: 170

query: Return the recorded IC50 value; entry: CCc1cc(CCC2(C3CCCC3)CC(O)=C(Cc3nc4nc(C)cc(C)n4n3)C(=O)O2)ccc1CN1CCOCC1 (racemic) [A(123)]
result: 39

query: Return the recorded IC50 value; entry: Cc1cnc2nc(CC3=C(O)CC(CCc4cc(CC(F)(F)F)nc(CC(F)(F)F)c4)(C4CCCC4)OC3=O)nn2c1 (stereo not drawn)
result: 23

query: Return the recorded IC50 value; entry: CCc1ccnc(CCC2(C3CCCC3)CC(O)=C(Cc3nc4nc(C)cc(C)n4n3)C(=O)O2)c1 (stereo not drawn)
result: 7

query: Return the recorded IC50 value; entry: Cn1nc(C(F)(F)F)c(CC2=C(O)CC(CCc3ccc(C(C)(C)C#N)c(F)c3)(C3CCCC3)OC2=O)c1Cl (stereo not drawn)
result: 11

query: Return the recorded IC50 value; entry: CCc1cc(CCC2(C3CCCC3)CC(=O)CC(=O)O2)ccc1CC#N (stereo not drawn)
result: 840

query: Return the recorded IC50 value; entry: CCc1cc(CCC2(C3CCCC3)CC(O)=C(Cc3nc4nc(C)cc(C)n4n3)C(=O)O2)ccc1CO (racemic) [B(33)]
result: 28
